Taken from BigSolDB 2.1.

conditions: in n-propyl acetate, 303.15 K
observedProperty: solubility (mole fraction)
Give bare numbers.

solubility (mole fraction) for NC(=O)c1ccncc1 is 0.00615

* * *

details: in n-pentanol, 283.15 K
observedProperty: solubility (mole fraction)
Numbers only.

For reference, reported solubility (mole fraction) for NC(=O)c1ccncc1 stands at 0.0136

* * *

conditions: in DMF, 323.15 K
observedProperty: solubility (mole fraction)

solubility (mole fraction) in this record for NC(=O)c1ccncc1 : 0.24

* * *

details: in DMF, 288.15 K
observedProperty: solubility (mole fraction)

Given item NC(=O)c1ccncc1 , the value recorded as its solubility (mole fraction) is 0.147

* * *

conditions: in DMAc, 298.15 K
observedProperty: solubility (mole fraction)
Numbers only.

Item: NC(=O)c1ccncc1 | solubility (mole fraction): 0.19

* * *

details: in ethanol, 288.15 K
observedProperty: solubility (mole fraction)

Lab book: solubility (mole fraction) of NC(=O)c1ccncc1 noted as 0.0266

* * *

conditions: in isopropanol, 323.15 K
observedProperty: solubility (mole fraction)
One number for each entry.

Lab note: NC(=O)c1ccncc1 gave solubility (mole fraction) of 0.0669

* * *

conditions: in isopropyl acetate, 323.15 K
observedProperty: solubility (mole fraction)

get_value(item= NC(=O)c1ccncc1 , readout=solubility (mole fraction)) returns 0.00871

* * *

details: in isopropyl acetate, 308.15 K
observedProperty: solubility (mole fraction)

Quick note, solubility (mole fraction) for NC(=O)c1ccncc1 landed at 0.00505

* * *

conditions: in ethanol, 278.15 K
observedProperty: solubility (mole fraction)
One number for each entry.

The compound listed as NC(=O)c1ccncc1 has a reported solubility (mole fraction) of 0.0191

* * *

details: in isopropyl acetate, 318.15 K
observedProperty: solubility (mole fraction)
Give bare numbers.

Input NC(=O)c1ccncc1 . Output solubility (mole fraction): 0.00734

* * *

settings: in methanol, 313.15 K
observedProperty: solubility (mole fraction)
Give bare numbers.

According to the records, this compound NC(=O)c1ccncc1 displays solubility (mole fraction) of 0.0911

* * *

settings: in ethanol, 308.15 K
observedProperty: solubility (mole fraction)
Numbers only.

Entry under test: NC(=O)c1ccncc1 . Its solubility (mole fraction) was 0.0461

* * *

details: in acetonitrile, 318.15 K
observedProperty: solubility (mole fraction)
Answers are plain numbers.

The value of solubility (mole fraction) measured for the compound NC(=O)c1ccncc1 turned out to be 0.0125

* * *

settings: in n-pentanol, 298.15 K
observedProperty: solubility (mole fraction)

Kindly note the recorded solubility (mole fraction) for NC(=O)c1ccncc1 , which is 0.0204

* * *

details: in methanol, 323.15 K
observedProperty: solubility (mole fraction)
One number for each entry.

So, NC(=O)c1ccncc1 ? Its solubility (mole fraction) was 0.122

* * *

details: in n-propyl acetate, 278.15 K
observedProperty: solubility (mole fraction)
Give bare numbers.

The compound listed as NC(=O)c1ccncc1 shows solubility (mole fraction) equal to 0.00198

* * *

conditions: in n-butanol, 298.15 K
observedProperty: solubility (mole fraction)
Answers are plain numbers.

NC(=O)c1ccncc1 yielded solubility (mole fraction) of 0.0284

* * *

conditions: in acetonitrile, 313.15 K
observedProperty: solubility (mole fraction)
One number for each entry.

solubility (mole fraction) for NC(=O)c1ccncc1 is 0.0102

* * *

settings: in methyl acetate, 308.15 K
observedProperty: solubility (mole fraction)
Answers are plain numbers.

The recorded solubility (mole fraction) for entry NC(=O)c1ccncc1 equals 0.0127

* * *

conditions: in n-butanol, 278.15 K
observedProperty: solubility (mole fraction)

Value of solubility (mole fraction) reported for the compound NC(=O)c1ccncc1 is 0.0172

* * *

conditions: in isopropyl acetate, 303.15 K
observedProperty: solubility (mole fraction)
Answers are plain numbers.

So, NC(=O)c1ccncc1 ? Its solubility (mole fraction) was 0.00397

* * *

conditions: in acetone, 323.15 K
observedProperty: solubility (mole fraction)
Numbers only.

// recorded solubility (mole fraction) for NC(=O)c1ccncc1 : 0.00057

* * *

conditions: in acetonitrile, 298.15 K
observedProperty: solubility (mole fraction)
One number for each entry.

The reported value for NC(=O)c1ccncc1 in terms of solubility (mole fraction) is 0.00572

* * *

conditions: in acetonitrile, 278.15 K
observedProperty: solubility (mole fraction)
Give bare numbers.

Input NC(=O)c1ccncc1 . Output solubility (mole fraction): 0.00251

* * *

conditions: in n-butanol, 303.15 K
observedProperty: solubility (mole fraction)
Give bare numbers.

Query NC(=O)c1ccncc1 yields solubility (mole fraction) of 0.0319

* * *

settings: in isopropyl acetate, 313.15 K
observedProperty: solubility (mole fraction)
Give bare numbers.

solubility (mole fraction) reported for this compound NC(=O)c1ccncc1 : 0.00616

* * *

details: in ethanol, 283.15 K
observedProperty: solubility (mole fraction)
Numbers only.

Briefly, solubility (mole fraction) measured for NC(=O)c1ccncc1 : 0.0221

* * *

conditions: in acetone, 293.15 K
observedProperty: solubility (mole fraction)
One number for each entry.

Looking up NC(=O)c1ccncc1 , I see its solubility (mole fraction) listed as 0.00021

* * *

conditions: in DMAc, 278.15 K
observedProperty: solubility (mole fraction)

So, NC(=O)c1ccncc1 ? Its solubility (mole fraction) was 0.114

* * *

conditions: in n-propyl acetate, 318.15 K
observedProperty: solubility (mole fraction)
One number for each entry.

The measured solubility (mole fraction) associated with NC(=O)c1ccncc1 reads 0.00937

* * *

conditions: in ethanol, 298.15 K
observedProperty: solubility (mole fraction)
Numbers only.

Record summary for NC(=O)c1ccncc1 : reported solubility (mole fraction) = 0.0347

* * *

conditions: in isopropanol, 313.15 K
observedProperty: solubility (mole fraction)
Answers are plain numbers.

Sure, the documented solubility (mole fraction) for NC(=O)c1ccncc1 is 0.0465

* * *

conditions: in n-propyl acetate, 313.15 K
observedProperty: solubility (mole fraction)
Numbers only.

Form field solubility (mole fraction), entry NC(=O)c1ccncc1 : 0.00832

* * *

details: in methanol, 288.15 K
observedProperty: solubility (mole fraction)
Answers are plain numbers.

// field: solubility (mole fraction); key: NC(=O)c1ccncc1 ; value = 0.0439

* * *

conditions: in methyl acetate, 323.15 K
observedProperty: solubility (mole fraction)
Answers are plain numbers.

# compound NC(=O)c1ccncc1 ; its solubility (mole fraction) = 0.0218

* * *

conditions: in ethanol, 303.15 K
observedProperty: solubility (mole fraction)
Numbers only.

The compound listed as NC(=O)c1ccncc1 shows solubility (mole fraction) equal to 0.0407

* * *

details: in n-propanol, 293.15 K
observedProperty: solubility (mole fraction)
Numbers only.

For this molecule ( NC(=O)c1ccncc1 ), measured solubility (mole fraction) is 0.0324

* * *

conditions: in ethyl acetate, 298.15 K
observedProperty: solubility (mole fraction)
Give bare numbers.

NC(=O)c1ccncc1 yielded solubility (mole fraction) of 0.0062

* * *

conditions: in DMAc, 303.15 K
observedProperty: solubility (mole fraction)
Give bare numbers.

Summary for this compound, NC(=O)c1ccncc1 : solubility (mole fraction) is 0.213

* * *

conditions: in acetonitrile, 303.15 K
observedProperty: solubility (mole fraction)
One number for each entry.

compound NC(=O)c1ccncc1 , solubility (mole fraction) observed: 0.00695

* * *

settings: in isopropanol, 298.15 K
observedProperty: solubility (mole fraction)
One number for each entry.

The reported value for NC(=O)c1ccncc1 in terms of solubility (mole fraction) is 0.0291

* * *

details: in THF, 313.15 K
observedProperty: solubility (mole fraction)

get_value(item= NC(=O)c1ccncc1 , readout=solubility (mole fraction)) returns 0.0276

* * *

conditions: in THF, 283.15 K
observedProperty: solubility (mole fraction)
One number for each entry.

The reported value for NC(=O)c1ccncc1 in terms of solubility (mole fraction) is 0.012

* * *

conditions: in n-propanol, 318.15 K
observedProperty: solubility (mole fraction)

compound NC(=O)c1ccncc1 , solubility (mole fraction) observed: 0.0639

* * *

settings: in n-pentanol, 308.15 K
observedProperty: solubility (mole fraction)
Numbers only.

Reported solubility (mole fraction) ( NC(=O)c1ccncc1 ) = 0.0279

* * *

conditions: in ethyl acetate, 313.15 K
observedProperty: solubility (mole fraction)
Answers are plain numbers.

Memo: NC(=O)c1ccncc1 , reported solubility (mole fraction): 0.0138

* * *

conditions: in DMF, 318.15 K
observedProperty: solubility (mole fraction)
Numbers only.

The molecule listed as NC(=O)c1ccncc1 has a reported solubility (mole fraction) of 0.221

* * *

conditions: in ethyl acetate, 308.15 K
observedProperty: solubility (mole fraction)
Numbers only.

The molecule listed as NC(=O)c1ccncc1 shows solubility (mole fraction) equal to 0.0105

* * *

settings: in isopropyl acetate, 283.15 K
observedProperty: solubility (mole fraction)
Numbers only.

Lab note: NC(=O)c1ccncc1 gave solubility (mole fraction) of 0.00217

* * *

conditions: in n-propanol, 303.15 K
observedProperty: solubility (mole fraction)
Numbers only.

GET /value?item= NC(=O)c1ccncc1 &field=solubility (mole fraction) returns 0.0418

* * *

conditions: in THF, 293.15 K
observedProperty: solubility (mole fraction)
One number for each entry.

For this compound ( NC(=O)c1ccncc1 ), measured solubility (mole fraction) is 0.0167
